Assay: yeast display, Sf9 membrane polyspecificity reagent, FACS + sequencing; frameworks hold sequencing errors
metric: polyreactivity (PSR sort gate)

QVQLVESGGGLVQAGGSLRLSCAASGFSFGIYAMGWYRQAPGKERELVADITASGGSTYYADSVKGRFTISRDNAKNTVYLQMNSLKPEDTAVYYCAADGWWHNFYPGTGLDYWGQGTQVTVSS
low polyreactivity
QVQLVESGGGLVQAGGSLRLSCAASGRTLDRYAMGWYSPAPGKERELVAAIRWSTGSTYYADSVKGRFTISRDNAKNTVYLQMNSLKPEDTAVYYCAAELSYWWYFAMDYWGQGTQVTVSS
high polyreactivity
QVQLVESGGGLVQAGGSLRLSCAASGSIFFRYTMGWYRQAPGKERELVAAITGDGGSTYADSVKGRFTISRDNAKNTVYLQMNSLNPEDTAVYYCAALSTTGIWGTVSTYYYWGQGTQVTVSS
low polyreactivity
QVQLVESGGGLVQAGGSLRLSCAASGIIFYSNAMGWARQAPGKETELVAGISKSGGSTYYADSVKGRFTISRDNAQNTVYLQMHSLKPEDTAVYYCAVRGGGRYRSWGYDYWGQGTQVTVSS
high polyreactivity
QVQLVESGGGLVQAGGSLRLSCAPSGYTFGKYAMGWYRHAPVKERELVATIRSGGSTNYADSVKGRFTISRDNAKNTVYLQMNSLKPEDTAVYYCNKRYRYQYGYDFWGQGTQVTVSS
high polyreactivity
QVQLLESGGGLVQAGGSLRLSCAASGSIFGGNARGWSRQAPGKERELVAAITYSGGSTYYADSVKGRFTISRDNAKNTVYLQMNSLKPEDTAVYYCNADGVVTWYDYWGQGTQVTVSS
low polyreactivity
QDQLVESGGGLVQAGGSLRLSCAASGIIFRNYAMGWYRQAPGKERELVATIRYRGGRTYADSVKGRFTISRDNAKNTVYLQMNSLKPEDTAVYYCNARRLSDYGDYDYWGQGTQVTVSS
high polyreactivity
QVQLVESGGGLVQAGGSLRLSCAASGRTFLTYAMGWYRQAPGKERELVAAISKRGGSTYYADSVKGRFTISRDNAKNTVYLQMNSLKPEDTAVYFCAADNGNHYGFWGQGTQVTVSS
high polyreactivity

Item under review: "QVQLVESGGGLVQAGGSLRLSCAASGSTFYHNAMGWYRQAPGKERELVAAITTSGGSTYYADSVKGRFTISRDNAKNTVYLQMNSLKPEDTAVYYCNVYRPYLAPYDYWGQGTQVTVSS" . Reported polyreactivity (PSR sort gate)?
low polyreactivity

Item under review: "QVQLVESGGGLVQAGGSLRLSCAASGFTFSYYAMGWYRQAPGKERELVAAISWNGGSTYYADSVKGRFTISRDNAKNTVYLQMNSLKPEDTAVNYCAADSLLYYYDTGYEYWGQGTQVTVSS" . Reported polyreactivity (PSR sort gate)?
high polyreactivity

Item under review: "QVQLVESGGGLVQAGGSLRLSCAASGRTFTFYTMGCYRQSPGKERELVAAITRSGGGTYYADSVKGRFTISRDNAKNTVYLQMNSLKPEDTAVYYCAAYNRNAFHWGQGTQVTVSS" . Reported polyreactivity (PSR sort gate)?
high polyreactivity
